Please go through the items and note down their activity, negative = cell killing.
Experiment: Drug repurposing screens with cells derived from glioblastoma tumor samples (AID 1345199); note: % is set by controls: 0 for no effect and ±100 for the full control effect
Conditions: GBM patient neurospheres viability, ATP luminescence, 48 h; at 45.9 µM (top of the series); tumour line B
Inconclusive results are not listed.
Give bare numbers, in %.

| compound | activity, negative = cell killing (%) |
| --- | --- |
| COc1ccc(/C=C/C(=O)OCCC(C)C)cc1 | 1.41 |
| CN[C@@H]1[C@@H](O)[C@@H](O[C@@H]2[C@@H](O)[C@H](O[C@H]3O[C@H](CN)[C@@H](O)[C@H](O)[C@H]3O)[C@@H](N)C[C@H]2NC(=O)C(O)CN)OC[C@]1(C)O (some centres undefined) | -11 |

For each listed entry, give its activity, negative = cell killing.
1. CN1C(=O)C[C@@H](C(=O)N[C@@H](Cc2cnc[nH]2)C(=O)N2CCC[C@H]2C(N)=O)NC1=O
2. CSc1nc2cc(Oc3cccc(Cl)c3Cl)c(Cl)cc2[nH]1
3. CC(=O)[O][Al][O]C(C)=O
4. O=P(O)(O)OP(=O)(O)OP(=O)(O)O
5. O=C1/C(=C\c2cccs2)CCC/C1=C\c1cccs1
6. NC(=O)[C@@H]1CCCN1C(=O)[C@H](Cc1cnc[nH]1)NC(=O)[C@@H]1CCC(=O)N1

Found:
[-7.31, -12.6, -5.15, -10.9, -19.7, -8.63]

For CC[C@H](CC[C@@H](C)[C@H]1CC[C@H]2[C@@H]3CC=C4C[C@@H](O)CC[C@]4(C)[C@H]3CC[C@]12C)C(C)C the compound record lists activity, negative = cell killing as -10.4
